Origin of measurements: ChEMBL document CHEMBL3885861

# Species: Rattus norvegicus
# assayRemarks: Open TG-GATES - Regimen: Single
# Assay type: toxicity, organism-based, Sprague-Dawley
# Set-up: regimen Single, gender Male, age 6 weeks
# runConditions: in vivo, po, 0 mg/kg, 6 h, tissue Plasma, route gavage, dose level Control
GLC by entry:
Field format: number, assumed mg/dL, no unit text.

Illustrative cases are given below, each with its answer.
molecule	metricName	unitDescriptor	quantitativeReadout
CN(C)CCC=C1c2ccccc2COc2ccccc21 [DOXEPIN]	GLC	mg/dL	158.4
CCC1(c2ccccc2)C(=O)NC(=O)NC1=O	GLC	mg/dL	193.2
CC1=C(CC(=O)O)c2cc(F)ccc2/C1=C\c1ccc([S+](C)[O-])cc1 (centres undefined)	GLC	mg/dL	171.8
CN(C)C(=N)N=C(N)N	GLC	mg/dL	161
OCCOCCN1CCN(C(c2ccccc2)c2ccc(Cl)cc2)CC1 (centres undefined) [HYDROXYZINE]	GLC	mg/dL	183.6
ClC(Cl)(Cl)Cl [CARBON TETRACHLORIDE]	GLC	mg/dL	196.8
CCc1oc2ccccc2c1C(=O)c1cc(Br)c(O)c(Br)c1	GLC	mg/dL	182.6
O=NN(CCCl)C(=O)NC1CCCCC1	GLC	mg/dL	189.6

Field: next molecule
*Q* Retrieve GLC measured for CC[C@H]1[C@@H]2C[C@H]3[C@@H]4N(C)c5ccccc5[C@]45C[C@@H]([C@@H]2[C@H]5O)N3[C@@H]1O and print it.
*A* 187

----------
A/G by entry:
# Species on record: Rattus norvegicus
# assayRemarks: Open TG-GATES - Regimen: Single
# Format: toxicity, organism-based, Sprague-Dawley
# Design: regimen Single, gender Male, age 6 weeks
# runConditions: in vivo, po, 0 mg/kg, 9 h, tissue Plasma, route gavage, dose level Control
Give your answer as a number; write no unit.

Illustrative cases are given below, each with its answer.
compound	A/G
ClC(Cl)(Cl)Cl [CARBON TETRACHLORIDE]	1.4
CCC1(c2ccccc2)C(=O)NC(=O)NC1=O	1.6
CC1=C(CC(=O)O)c2cc(F)ccc2/C1=C\c1ccc([S+](C)[O-])cc1 (configuration not stated)	1
CCc1oc2ccccc2c1C(=O)c1cc(Br)c(O)c(Br)c1	1.9
OCCOCCN1CCN(C(c2ccccc2)c2ccc(Cl)cc2)CC1 (configuration not stated) [HYDROXYZINE]	0.9

*Q* Retrieve A/G measured for O=NN(CCCl)C(=O)NC1CCCCC1 and print it.
*A* 2.4

*Q* Retrieve A/G measured for CC[C@H]1[C@@H]2C[C@H]3[C@@H]4N(C)c5ccccc5[C@]45C[C@@H]([C@@H]2[C@H]5O)N3[C@@H]1O and print it.
*A* 2.4

----------
MCV by entry:
# Species on record: Rattus norvegicus
# assayRemarks: Open TG-GATES - Regimen: Single
# Assay type: toxicity, organism-based, Sprague-Dawley
# Parameters: regimen Single, gender Male, age 6 weeks
# runConditions: in vivo, po, 0 mg/kg, 6 h, tissue Blood, route gavage, dose level Control
Field format: number, assumed fL, no unit text.

Illustrative cases are given below, each with its answer.
compound	unitDescriptor	MCV
CC(C)N(CCC(C(N)=O)(c1ccccc1)c1ccccn1)C(C)C (stereo not given) [DISOPYRAMIDE]	fL	64.8
CCC1(c2ccccc2)C(=O)NC(=O)NC1=O [PHENOBARBITAL]	fL	59.5
ClC(Cl)(Cl)Cl [CARBON TETRACHLORIDE]	fL	63.4
CN(C)C(=N)N=C(N)N [METFORMIN]	fL	62.9
CCc1oc2ccccc2c1C(=O)c1cc(Br)c(O)c(Br)c1 [BENZBROMARONE]	fL	65

Field: next compound
*Q* Retrieve MCV measured for OCCOCCN1CCN(C(c2ccccc2)c2ccc(Cl)cc2)CC1 (stereo not given) [HYDROXYZINE] and print it.
*A* 67.5

----------
ALP by entry:
# Organism: Rattus norvegicus
# assayRemarks: Open TG-GATES - Regimen: Single
# Format: toxicity, organism-based, Sprague-Dawley
# Design: regimen Single, gender Male, age 6 weeks
# runConditions: in vivo, po, 0 mg/kg, 24 h, tissue Plasma, route gavage, dose level Control
Field format: number, assumed IU/L, no unit text.

compound	ALP / IU/L
CC(C)N(CCC(C(N)=O)(c1ccccc1)c1ccccn1)C(C)C (stereo unspecified) [DISOPYRAMIDE]	1631

*Q* Retrieve ALP measured for CN(C)CCC=C1c2ccccc2COc2ccccc21 [DOXEPIN] and print it.
*A* 2073

*Q* Retrieve ALP measured for O=NN1CCOCC1 and print it.
*A* 1437.2

*Q* Retrieve ALP measured for CCc1oc2ccccc2c1C(=O)c1cc(Br)c(O)c(Br)c1 and print it.
*A* 682.4

*Q* Retrieve ALP measured for CCC1(c2ccccc2)C(=O)NC(=O)NC1=O and print it.
*A* 911.2

*Q* Retrieve ALP measured for CC[C@H]1[C@@H]2C[C@H]3[C@@H]4N(C)c5ccccc5[C@]45C[C@@H]([C@@H]2[C@H]5O)N3[C@@H]1O and print it.
*A* 885.6

*Q* Retrieve ALP measured for CN(C)C(=N)N=C(N)N and print it.
*A* 1728.6

*Q* Retrieve ALP measured for O=NN(CCCl)C(=O)NC1CCCCC1 and print it.
*A* 991.8

*Q* Retrieve ALP measured for ClC(Cl)(Cl)Cl [CARBON TETRACHLORIDE] and print it.
*A* 1231.6

*Q* Retrieve ALP measured for OCCOCCN1CCN(C(c2ccccc2)c2ccc(Cl)cc2)CC1 (stereo unspecified) [HYDROXYZINE] and print it.
*A* 1738.8

*Q* Retrieve ALP measured for CC1=C(CC(=O)O)c2cc(F)ccc2/C1=C\c1ccc([S+](C)[O-])cc1 (stereo unspecified) and print it.
*A* 1542

----------
ALT by entry:
# Species: Rattus norvegicus
# assayRemarks: Open TG-GATES - Regimen: Single
# Format: toxicity, organism-based, Sprague-Dawley
# Design: regimen Single, gender Male, age 6 weeks
# runConditions: in vivo, po, 0 mg/kg, 24 h, tissue Plasma, route gavage, dose level Control
Field format: number, assumed IU/L, no unit text.

Illustrative cases are given below, each with its answer.
molecule	unitDescriptor	ALT
CC1=C(CC(=O)O)c2cc(F)ccc2/C1=C\c1ccc([S+](C)[O-])cc1 (stereo unspecified)	IU/L	49
CN(C)CCC=C1c2ccccc2COc2ccccc21 [DOXEPIN]	IU/L	37.8
CC[C@H]1[C@@H]2C[C@H]3[C@@H]4N(C)c5ccccc5[C@]45C[C@@H]([C@@H]2[C@H]5O)N3[C@@H]1O [AJMALINE]	IU/L	38.6
O=NN(CCCl)C(=O)NC1CCCCC1 [LOMUSTINE]	IU/L	35
ClC(Cl)(Cl)Cl [CARBON TETRACHLORIDE]	IU/L	37.2

Field: next molecule
*Q* Retrieve ALT measured for CCc1oc2ccccc2c1C(=O)c1cc(Br)c(O)c(Br)c1 [BENZBROMARONE] and print it.
*A* 32.2

----------
TG by entry:
# Species: Rattus norvegicus
# assayRemarks: Open TG-GATES - Regimen: Daily Repeat
# Type: toxicity, organism-based, Sprague-Dawley
# Parameters: regimen Daily Repeat, gender Male, age 6 weeks
# runConditions: in vivo, po, 0 mg/kg, […], tissue Plasma, route gavage, dose level Control, time 7 day
Field format: number, assumed mg/dL, no unit text.

Illustrative cases are given below, each with its answer.
molecule	quantitativeReadout
O=NN(CCCl)C(=O)NC1CCCCC1 [LOMUSTINE]	113.2
CC1=C(CC(=O)O)c2cc(F)ccc2/C1=C\c1ccc([S+](C)[O-])cc1 (stereo unspecified)	120.4
OCCOCCN1CCN(C(c2ccccc2)c2ccc(Cl)cc2)CC1 (stereo unspecified) [HYDROXYZINE]	103
CC[C@H]1[C@@H]2C[C@H]3[C@@H]4N(C)c5ccccc5[C@]45C[C@@H]([C@@H]2[C@H]5O)N3[C@@H]1O [AJMALINE]	126.4
CCC1(c2ccccc2)C(=O)NC(=O)NC1=O [PHENOBARBITAL]	150
CN(C)CCC=C1c2ccccc2COc2ccccc21 [DOXEPIN]	112.2
CCCCc1oc2ccccc2c1C(=O)c1cc(I)c(OCCN(CC)CC)c(I)c1 [AMIODARONE]	116.6
ClC(Cl)(Cl)Cl [CARBON TETRACHLORIDE]	126.4
CC(C)N(CCC(C(N)=O)(c1ccccc1)c1ccccn1)C(C)C (stereo unspecified) [DISOPYRAMIDE]	133.6
CN(C)C(=N)N=C(N)N [METFORMIN]	91

Field: next molecule
*Q* Retrieve TG measured for CCc1oc2ccccc2c1C(=O)c1cc(Br)c(O)c(Br)c1 [BENZBROMARONE] and print it.
*A* 136.4

----------
LDH by entry:
# Organism: Rattus norvegicus
# assayRemarks: Open TG-GATES - Regimen: Daily Repeat
# Format: toxicity, organism-based, Sprague-Dawley
# Set-up: regimen Daily Repeat, gender Male, age 6 weeks
# runConditions: in vivo, po, 0 mg/kg, […], tissue Plasma, route gavage, dose level Control, time 7 day
// unit must come after the numeric part

Illustrative cases are given below, each with its answer.
molecule	LDH
CN(C)CCC=C1c2ccccc2COc2ccccc21 [DOXEPIN]	67.2 IU/L
CCCCc1oc2ccccc2c1C(=O)c1cc(I)c(OCCN(CC)CC)c(I)c1	179.6 IU/L
CC1=C(CC(=O)O)c2cc(F)ccc2/C1=C\c1ccc([S+](C)[O-])cc1 (stereo unspecified)	108.4 IU/L
OCCOCCN1CCN(C(c2ccccc2)c2ccc(Cl)cc2)CC1 (stereo unspecified) [HYDROXYZINE]	68.4 IU/L
CCc1oc2ccccc2c1C(=O)c1cc(Br)c(O)c(Br)c1	102.2 IU/L

*Q* Retrieve LDH measured for CC(C)N(CCC(C(N)=O)(c1ccccc1)c1ccccn1)C(C)C (stereo unspecified) [DISOPYRAMIDE] and print it.
*A* 199.2 IU/L
